Test system: biotinyl-Leu-oxazolone
Test: self-aminoacylation, catalytic enhancement (BLO) (fold over background); higher = more active; k-Seq, kA / k0A0; sequences stand for … in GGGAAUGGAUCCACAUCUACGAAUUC…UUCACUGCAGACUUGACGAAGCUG
Fewer inactive variants are shown than the library holds.
Class fulfilled: self-aminoacylation at least 5. Class not fulfilled: self-aminoacylation below 5.

Answered cases to consult:
Data request: Dear colleague, could you confirm whether CUCCACUUCAAGCAAUCGGUC [Fam1B.1 aminoacylation ribozyme variant] has self-aminoacylation at or above 5?
Data returned: not fulfilled

Data request: State whether the measured self-aminoacylation reaches 5, counting equality as reaching it, for AAUCACCUAGGUGAUCGGGUG [Fam2.2 aminoacylation ribozyme variant]
Data returned: not fulfilled

Data request: For this sequence, is measured self-aminoacylation 5 or higher? AUUCACCCAGGUCAUCCGGUG [Fam2.2 aminoacylation ribozyme variant]
Data returned: fulfilled

Data request: Is self-aminoacylation at least 5? Consider AUCCACCUAGGUCAUCGGAUG [Fam2.2 aminoacylation ribozyme variant]
Data returned: not fulfilled

With those in mind, consider the next sequence.
Data request: Check the entry AAGUUGGCUAAUAUUCGCAAG [Fam3.1 aminoacylation ribozyme variant] : does self-aminoacylation equal or exceed 5?
Data returned: not fulfilled
